- System: Plasmodium falciparum
- procedure-summary: Antimalarial activity against chloroquine-sensitive Plasmodium falciparum 3D7 by SyBR Green method
measured-metric: IC50 (nM)
Form entry: value (nM) — number only.

Suppose we examine the compound C[C@H]1[C@H](OC(=O)CCC(=O)O)O[C@@H]2O[C@@]3(C)CC[C@H]4[C@H](C)CC[C@@H]1[C@@]24OO3 [ARTESUNATE] ; what IC50 value has been reported?
2

---

- Tested on: Plasmodium falciparum
- procedure-summary: Antimalarial activity against multi-resistant Plasmodium falciparum infected in human erythrocytes assessed as inhibition of [G-3H]hypoxanthine uptake incubated for 42 hrs by liquid scintillation counting method
- Type: functional, organism-based
- test-conditions: Erythrocyte
measured-metric: IC50 (µM)
Form entry: value (µM) — number only.

Suppose we examine the molecule C[C@H]1c2cccc(O)c2C(=O)C2=C(O)[C@]3(O)C(=O)C(C(N)=O)=C(O)[C@@H](N(C)C)[C@@H]3[C@@H](O)[C@@H]21 ; what IC50 value has been reported?
5.1
